Test system: HepG2 cells
Assay: HepG2 assay (mammalian counterscreen, resazurin)
Format: cell-based, human
Conditions: Homo sapiens, HepG2; reference compound panel; mean (standard deviation); 72 h; read-out: HepG2 (potency, pEC50) (converted)
Value Kind: EC50

compound=N=C(N)c1ccc(OCCCCCOc2ccc(C(=N)N)cc2)cc1 assay_result="2.82 µM"
compound="NC(=O)c1cnccn1 [Pyrazinamide]" assay_result="> 50.1 µM"
compound=COc1ccc2cc3[n+](cc2c1OC)CCc1cc2c(cc1-3)OCO2 assay_result="33.9 µM"
compound=NCCCC(O)(P(=O)(O)O)P(=O)(O)O assay_result="> 50.1 µM"
compound=CC(C)Cn1cnc2c(N)nc3ccccc3c21 assay_result="> 50.1 µM"
compound="CC1CS(=O)(=O)CCN1/N=C/c1ccc([N+](=O)[O-])o1 (stereo not drawn)" assay_result="> 50.1 µM"
compound=N=C(N)c1ccc(/N=N/Nc2ccc(C(=N)N)cc2)cc1 assay_result="> 50.1 µM"
compound=Cc1ccc(C(=O)Nc2ccc(S(=O)(=O)O)c3cc(S(=O)(=O)O)cc(S(=O)(=O)O)c23)cc1NC(=O)c1cccc(NC(=O)Nc2cccc(C(=O)Nc3cc(C(=O)Nc4ccc(S(=O)(=O)O)c5cc(S(=O)(=O)O)cc(S(=O)(=O)O)c45)ccc3C)c2)c1 assay_result="> 50.1 µM"
compound="OC(c1cc(C(F)(F)F)nc2c(C(F)(F)F)cccc12)C1CCCCN1 (stereo not drawn)" assay_result="9.77 µM"
